molecular target: Human CaV2.2 channels (Homo sapiens); construct: expressed in transfected cells; test: Fluorescence assay for CaV2.2 channels using potassium depolarization to induce channel opening (FLIPR, Fluo 4); format: cell-based; settings: HEK293, 3 μM test compound; alternative assay buffer 30 mM KCl (inactivated channel state); HEK293 cells stably expressing human CaV2.2; read-out: Activity Category: %-Inhib (CaV2.2) @3 μM @30 mM KCl
Sequence (P54289 947-1103): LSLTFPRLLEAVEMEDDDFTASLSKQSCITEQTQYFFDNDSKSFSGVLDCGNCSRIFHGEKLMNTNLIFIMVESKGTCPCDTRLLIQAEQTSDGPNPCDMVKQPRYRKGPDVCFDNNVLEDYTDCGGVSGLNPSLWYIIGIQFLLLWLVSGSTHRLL
Sequence (P54289 25-946): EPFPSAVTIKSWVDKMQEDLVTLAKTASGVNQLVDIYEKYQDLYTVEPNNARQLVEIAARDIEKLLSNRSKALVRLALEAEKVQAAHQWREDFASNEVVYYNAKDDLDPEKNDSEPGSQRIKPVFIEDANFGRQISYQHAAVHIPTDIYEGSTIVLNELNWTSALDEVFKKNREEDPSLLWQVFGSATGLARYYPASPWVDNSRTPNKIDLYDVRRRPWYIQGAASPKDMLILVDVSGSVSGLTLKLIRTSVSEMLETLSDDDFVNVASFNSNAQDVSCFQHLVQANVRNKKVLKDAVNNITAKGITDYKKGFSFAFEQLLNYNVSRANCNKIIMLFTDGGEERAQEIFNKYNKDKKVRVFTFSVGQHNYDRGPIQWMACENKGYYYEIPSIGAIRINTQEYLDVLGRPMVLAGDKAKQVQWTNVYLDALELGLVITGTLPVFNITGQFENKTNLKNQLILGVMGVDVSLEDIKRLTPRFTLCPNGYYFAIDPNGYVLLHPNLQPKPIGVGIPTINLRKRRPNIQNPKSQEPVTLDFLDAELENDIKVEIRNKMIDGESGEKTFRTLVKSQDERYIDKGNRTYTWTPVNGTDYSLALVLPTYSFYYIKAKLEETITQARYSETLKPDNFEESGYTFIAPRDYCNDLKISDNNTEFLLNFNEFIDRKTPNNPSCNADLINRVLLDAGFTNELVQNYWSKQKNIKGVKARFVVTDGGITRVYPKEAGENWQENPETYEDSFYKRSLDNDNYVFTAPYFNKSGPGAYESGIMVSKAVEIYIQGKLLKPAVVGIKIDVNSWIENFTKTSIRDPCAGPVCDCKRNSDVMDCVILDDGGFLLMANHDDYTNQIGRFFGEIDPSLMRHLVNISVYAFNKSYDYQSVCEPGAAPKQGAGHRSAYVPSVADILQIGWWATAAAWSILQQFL
Sequence (P54284 whole entry, further chain): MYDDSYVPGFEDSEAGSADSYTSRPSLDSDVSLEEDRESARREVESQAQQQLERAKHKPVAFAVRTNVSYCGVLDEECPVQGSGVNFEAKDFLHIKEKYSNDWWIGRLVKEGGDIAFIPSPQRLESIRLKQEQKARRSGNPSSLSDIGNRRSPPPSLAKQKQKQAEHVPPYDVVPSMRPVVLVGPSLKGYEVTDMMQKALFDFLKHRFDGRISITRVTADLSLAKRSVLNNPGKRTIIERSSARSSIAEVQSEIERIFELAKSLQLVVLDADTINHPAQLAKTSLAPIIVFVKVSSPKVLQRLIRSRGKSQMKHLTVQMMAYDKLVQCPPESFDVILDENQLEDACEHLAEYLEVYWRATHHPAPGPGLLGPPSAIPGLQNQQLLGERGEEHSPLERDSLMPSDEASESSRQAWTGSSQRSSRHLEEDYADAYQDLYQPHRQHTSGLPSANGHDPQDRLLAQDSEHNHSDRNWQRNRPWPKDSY
Sequence (Q00975 whole entry): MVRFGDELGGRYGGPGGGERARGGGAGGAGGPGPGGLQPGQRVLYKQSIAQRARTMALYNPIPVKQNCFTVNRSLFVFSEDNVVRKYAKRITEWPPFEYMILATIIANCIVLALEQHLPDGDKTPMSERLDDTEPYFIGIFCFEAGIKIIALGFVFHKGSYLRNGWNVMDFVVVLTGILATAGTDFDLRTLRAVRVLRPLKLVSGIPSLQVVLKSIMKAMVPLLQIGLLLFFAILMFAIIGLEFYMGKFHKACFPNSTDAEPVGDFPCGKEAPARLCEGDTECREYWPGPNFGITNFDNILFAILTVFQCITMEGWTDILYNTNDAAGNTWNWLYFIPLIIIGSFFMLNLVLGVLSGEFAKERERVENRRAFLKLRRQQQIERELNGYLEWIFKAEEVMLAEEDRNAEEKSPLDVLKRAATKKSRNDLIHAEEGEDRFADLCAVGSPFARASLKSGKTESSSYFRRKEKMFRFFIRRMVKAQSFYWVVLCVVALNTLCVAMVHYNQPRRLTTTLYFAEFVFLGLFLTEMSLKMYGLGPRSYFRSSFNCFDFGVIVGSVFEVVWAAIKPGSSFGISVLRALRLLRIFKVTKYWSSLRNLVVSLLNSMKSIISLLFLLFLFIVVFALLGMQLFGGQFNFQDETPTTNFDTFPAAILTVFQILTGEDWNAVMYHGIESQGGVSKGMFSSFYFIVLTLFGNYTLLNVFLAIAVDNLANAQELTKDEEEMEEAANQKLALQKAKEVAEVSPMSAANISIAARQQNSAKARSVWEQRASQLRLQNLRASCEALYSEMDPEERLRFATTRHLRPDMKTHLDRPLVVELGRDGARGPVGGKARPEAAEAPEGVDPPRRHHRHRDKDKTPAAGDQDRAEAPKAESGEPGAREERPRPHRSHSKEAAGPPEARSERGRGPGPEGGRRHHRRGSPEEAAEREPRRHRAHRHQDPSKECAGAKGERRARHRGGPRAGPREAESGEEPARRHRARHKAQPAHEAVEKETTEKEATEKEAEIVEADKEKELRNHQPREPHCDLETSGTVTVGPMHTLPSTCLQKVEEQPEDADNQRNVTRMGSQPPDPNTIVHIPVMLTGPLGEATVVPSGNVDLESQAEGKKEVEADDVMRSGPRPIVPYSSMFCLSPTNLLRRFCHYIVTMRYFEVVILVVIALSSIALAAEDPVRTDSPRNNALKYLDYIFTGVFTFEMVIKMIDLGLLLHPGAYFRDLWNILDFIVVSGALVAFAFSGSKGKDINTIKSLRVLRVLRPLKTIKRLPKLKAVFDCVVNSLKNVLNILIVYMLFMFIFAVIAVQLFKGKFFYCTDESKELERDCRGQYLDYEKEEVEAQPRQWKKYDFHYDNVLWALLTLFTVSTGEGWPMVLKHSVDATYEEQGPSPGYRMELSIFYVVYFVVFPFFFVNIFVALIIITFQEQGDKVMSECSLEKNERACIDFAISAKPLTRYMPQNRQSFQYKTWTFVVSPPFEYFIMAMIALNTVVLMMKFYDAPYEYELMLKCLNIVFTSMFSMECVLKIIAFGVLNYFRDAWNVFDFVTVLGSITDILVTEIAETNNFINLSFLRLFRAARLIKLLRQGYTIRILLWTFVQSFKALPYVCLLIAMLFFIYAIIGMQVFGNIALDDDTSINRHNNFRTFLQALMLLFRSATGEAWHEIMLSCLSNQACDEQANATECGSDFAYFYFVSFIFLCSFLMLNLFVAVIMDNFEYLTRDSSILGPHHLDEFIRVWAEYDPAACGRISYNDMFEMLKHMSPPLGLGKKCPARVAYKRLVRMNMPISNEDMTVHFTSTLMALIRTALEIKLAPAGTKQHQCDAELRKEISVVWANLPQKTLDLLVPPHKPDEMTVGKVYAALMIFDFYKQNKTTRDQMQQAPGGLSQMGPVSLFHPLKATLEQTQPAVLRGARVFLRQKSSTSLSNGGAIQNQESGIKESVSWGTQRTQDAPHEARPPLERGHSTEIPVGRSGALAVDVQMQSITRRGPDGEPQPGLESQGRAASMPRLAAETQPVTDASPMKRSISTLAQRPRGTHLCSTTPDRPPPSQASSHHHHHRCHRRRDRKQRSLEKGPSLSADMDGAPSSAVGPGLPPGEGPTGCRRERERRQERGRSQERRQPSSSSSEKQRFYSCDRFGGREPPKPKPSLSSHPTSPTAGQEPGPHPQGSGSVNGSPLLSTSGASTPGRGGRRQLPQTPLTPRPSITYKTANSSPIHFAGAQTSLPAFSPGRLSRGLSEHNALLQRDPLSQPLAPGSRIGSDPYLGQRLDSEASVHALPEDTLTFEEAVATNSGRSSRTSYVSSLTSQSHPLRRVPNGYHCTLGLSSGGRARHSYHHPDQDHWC
Listed here: items and their measured inhibition at 3 µM.

- COMPOUND: "Cn1nc(C2CC2)cc1C1CC(C)(S(=O)(=O)c2cccc(C(F)(F)F)c2)CCO1 (racemic) [SC-434]"
  inhibition at 3 µM: "75 to 95%"
- COMPOUND: "CC1(S(=O)(=O)c2cccc(C(F)(F)F)c2)CCOC(c2ccc(Br)nc2)C1 (racemic) [SC-337]"
  inhibition at 3 µM: "> 95%"
- COMPOUND: "CC1(S(=O)(=O)c2cccc(C(F)(F)F)c2)CCOC(c2ccc(C(F)(F)F)nc2)C1 (racemic) [SC-306]"
  inhibition at 3 µM: "> 95%"
- COMPOUND: "CC1(S(=O)(=O)c2cccc(C(F)(F)F)c2)CCOC(c2noc(C3CC3)n2)C1 (single isomer, unassigned) [SC-110]"
  inhibition at 3 µM: "75 to 95%"
- COMPOUND: "COc1cc(C)c(C2CC(C)(S(=O)(=O)c3cccc(C(F)(F)F)c3)CCO2)cn1 (stereo not shown) [SC-248]"
  inhibition at 3 µM: "75 to 95%"
- COMPOUND: "CC1(S(=O)(=O)c2cccc(C(F)F)c2)CCOC(c2ncc(C(F)(F)F)cc2S(C)(=O)=O)C1 (stereo not shown) [SC-212]"
  inhibition at 3 µM: "75 to 95%"
- COMPOUND: "CC1(S(=O)(=O)c2cccc(C(F)(F)F)c2)CCOC(COc2ccc(C3CC3)nc2)C1 (single isomer, unassigned) [SC-118]"
  inhibition at 3 µM: "> 95%"
- COMPOUND: "CC1(S(=O)(=O)c2cccc(C(F)(F)F)c2)CCOC(c2ncc(OC(F)F)cc2S(C)(=O)=O)C1 (stereo not shown) [SC-266]"
  inhibition at 3 µM: "> 95%"
- COMPOUND: "COc1cc(OC(F)F)c(C2CC(C)(S(=O)(=O)c3cccc(C(F)(F)F)c3)CCO2)cn1 (stereo not shown) [SC-253]"
  inhibition at 3 µM: "75 to 95%"
- COMPOUND: "CC1(S(=O)(=O)c2cccc(C(F)(F)F)c2)CCOC(c2nnc(C3CC3)o2)C1 (stereo not shown) [SC-127]"
  inhibition at 3 µM: "40 to 75%"
- COMPOUND: "COc1ccc(C2CC(C)(S(=O)(=O)c3cccc(C(F)(F)F)c3)CCO2)cn1 (stereo not shown) [SC-353]"
  inhibition at 3 µM: "75 to 95%"
- COMPOUND: "CC1(S(=O)(=O)c2cccc(C(F)(F)F)c2)CCOC(c2ncc(C3CC3)cc2Cl)C1 (stereo not shown) [SC-425]"
  inhibition at 3 µM: "> 95%"
- COMPOUND: "CCC1(S(=O)(=O)c2cccc(C(F)(F)F)c2)CCOC(c2nnc(C3CC3)o2)C1 (stereo not shown) [SC-206]"
  inhibition at 3 µM: "40 to 75%"
- COMPOUND: "COc1cc(OC)c(C2CC(C)(S(=O)(=O)c3cccc(C(F)(F)F)c3)CCO2)cn1 (racemic) [SC-247]"
  inhibition at 3 µM: "75 to 95%"
- COMPOUND: "CNc1ccc(C2CC(C)(S(=O)(=O)c3cccc(C(F)(F)F)c3)CCO2)cn1 (racemic) [SC-412]"
  inhibition at 3 µM: "75 to 95%"
- COMPOUND: "CC1(S(=O)(=O)c2cccc(S(C)(=O)=O)c2)CCOC(c2ncc(C(F)(F)F)cc2S(C)(=O)=O)C1 (stereo not shown) [SC-210]"
  inhibition at 3 µM: "> 95%"
- COMPOUND: "CNc1ccc(C2CC(C)(S(=O)(=O)c3cccc(C(F)(F)F)c3)CCO2)cn1 (stereo not shown) [SC-408]"
  inhibition at 3 µM: "75 to 95%"
- COMPOUND: "COc1ncc(C2CC(C)(S(=O)(=O)c3cccc(C(F)(F)F)c3)CCO2)cc1F (stereo not shown) [SC-255]"
  inhibition at 3 µM: "> 95%"
- COMPOUND: "O=S(=O)(c1cccc(C(F)(F)F)c1)C1CCOC(c2cccc(C(F)(F)F)n2)C1 (stereo not shown) [SC-350]"
  inhibition at 3 µM: "> 95%"
- COMPOUND: "COc1cc(C)c(C2CC(C)(S(=O)(=O)c3cccc(C(F)(F)F)c3)CCO2)cn1 (racemic) [SC-252]"
  inhibition at 3 µM: "75 to 95%"
- COMPOUND: "CC1(S(=O)(=O)c2cccc(C(F)(F)F)c2)CCOC(c2ccc(C3CC3)cn2)C1 (stereo not shown) [SC-103]"
  inhibition at 3 µM: "> 95%"
- COMPOUND: "CN(C)c1ccc(C2CC(C)(S(=O)(=O)c3cccc(C(F)(F)F)c3)CCO2)cn1 (stereo not shown) [SC-330]"
  inhibition at 3 µM: "75 to 95%"
- COMPOUND: "CC1(S(=O)(=O)c2cccc(C(F)(F)F)c2)CCOC(c2cncc(C(F)(F)F)c2)C1 (single isomer, unassigned) [SC-115]"
  inhibition at 3 µM: "75 to 95%"
- COMPOUND: "CC1(S(=O)(=O)c2cccc(C(F)(F)F)c2)CCOC(c2cnc(C(F)(F)F)nc2)C1 (stereo not shown) [SC-304]"
  inhibition at 3 µM: "75 to 95%"
- COMPOUND: "Cc1cc(S(C)(=O)=O)cnc1C1CC(C)(S(=O)(=O)c2cc(F)cc(C(F)F)c2)CCO1 (stereo not shown) [SC-442]"
  inhibition at 3 µM: "40 to 75%"
